Test system: Trichophyton benhamiae
Experiment summary: Antifungal activity against Trichophyton mentagrophytes by broth microdilution technique
Type: functional, organism-based, Arthroderma benhamiae
In this section, each of the molecules is paired with its reported log10(MIC).
Plainly stated, the numbers are log10 of MIC given in µg/mL.

Lab note: `CCOC(=O)CSC1=C(NCC(C)C)C(=O)c2ccccc2C1=O` gave log10(MIC) of 1.10

// CCOC(=O)C(C)SC1=C(NN)C(=O)c2ccccc2C1=O (centres undefined) : log10(MIC) value = 0.80

Query `OC(Cn1cncn1)(Cn1cncn1)c1ccc(F)cc1F` yields log10(MIC) of 0.00

What the record says about `CCOC(=O)CSC1=C(Nc2ccccc2)C(=O)c2ccccc2C1=O` : log10(MIC) is 1.40

The reported value for `CCOC(=O)CSC1=C(NC(C)C)C(=O)c2ccccc2C1=O` in terms of log10(MIC) is 1.10

The recorded log10(MIC) for `CCOC(=O)CSC1=C(NCc2ccccc2)C(=O)c2ccccc2C1=O` is 0.80

Sample CCOC(=O)C(C)SC1=C(NC(C)(C)C)C(=O)c2ccccc2C1=O (centres undefined) ; log10(MIC) observed: 0.49

The recorded log10(MIC) for entry CCOC(=O)C(C)SC1=C(NCCc2ccc(OC)c(OC)c2)C(=O)c2ccccc2C1=O (centres undefined) equals 1.40

Looking up `Cc1sc2c(=O)c3ccccc3c(=O)c=2n(C)c1O` , I see its log10(MIC) listed as 0.19

`C[C@@H]1[C@H](O)[C@@H](C)/C=C/C=C/C=C/C=C/C=C/C=C/C=C/[C@H](O[C@@H]2O[C@H](C)[C@@H](O)[C@H](N)[C@@H]2O)C[C@@H]2O[C@](O)(C[C@@H](O)C[C@@H](O)[C@H](O)CC[C@@H](O)C[C@@H](O)CC(=O)O[C@H]1C)C[C@H](O)[C@H]2C(=O)O` has a reported log10(MIC) of -0.92

###

Measured MIC by item
Tested on: Staphylococcus aureus
Experiment summary: Antibacterial activity against Staphylococcus aureus by broth microdilution technique
Assay type: functional, organism-based
Settings: Staphylococcus aureus
Quick note: give the figure in µg/mL, leave out the unit.

molecule=CCOC(=O)CSC1=C(Cl)C(=O)c2ccccc2C1=O tested_system="Staphylococcus aureus" value_units=µg/mL endpoint_result=12.5
molecule="CC1(C)S[C@@H]2[C@H](NC(=O)[C@H](N)c3ccccc3)C(=O)N2[C@H]1C(=O)O [AMPICILLIN]" tested_system="Staphylococcus aureus" value_units=µg/mL endpoint_result=0.9
molecule=CCOC(=O)CSC1=C(Nc2ccccc2)C(=O)c2ccccc2C1=O tested_system="Staphylococcus aureus" value_units=µg/mL endpoint_result=12.5

MIC in this record for `Cc1sc2c(=O)c3ccccc3c(=O)c=2n(C)c1O` : 3.12

Recorded MIC (molecule CCOC(=O)C(C)SC1=C(Cl)C(=O)c2ccccc2C1=O (configuration not stated) ): 12.5

MIC for CCOC(=O)C(C)SC1=C(NC(C)(C)C)C(=O)c2ccccc2C1=O (configuration not stated) is 6.25

# molecule CCOC(=O)C(C)SC1=C(N)C(=O)c2ccccc2C1=O (configuration not stated) ; its MIC = 6.25

###

Test system: Pseudomonas aeruginosa
Experiment summary: Antibacterial activity against Pseudomonas aeruginosa by broth microdilution technique
Type: functional, organism-based
Settings: Pseudomonas aeruginosa
Attribute: MIC
Write the answer as a number in µg/mL, unit excluded.

Some solved entries appear below for comparison.
molecule="CCOC(=O)C(C)SC1=C(NCCO)C(=O)c2ccccc2C1=O (stereo not drawn)" measure_name=MIC endpoint_result=25
molecule=CC1(C)S[C@@H]2[C@H](NC(=O)[C@H](N)c3ccccc3)C(=O)N2[C@H]1C(=O)O measure_name=MIC endpoint_result=50
molecule="CCOC(=O)C(C)SC1=C(NCCc2ccc(OC)c(OC)c2)C(=O)c2ccccc2C1=O (stereo not drawn)" measure_name=MIC endpoint_result=50
molecule=CCOC(=O)CSC1=C(Cl)C(=O)c2ccccc2C1=O measure_name=MIC endpoint_result=50
molecule=CCOC(=O)CSC1=C(NCC(C)C)C(=O)c2ccccc2C1=O measure_name=MIC endpoint_result=50
molecule="CCOC(=O)C(C)SC1=C(N)C(=O)c2ccccc2C1=O (stereo not drawn)" measure_name=MIC endpoint_result=50
molecule="CCOC(=O)C(C)SC1=C(NC(C)(C)C)C(=O)c2ccccc2C1=O (stereo not drawn)" measure_name=MIC endpoint_result=6.25
molecule=CCOC(=O)CSC1=C(Nc2ccccc2)C(=O)c2ccccc2C1=O measure_name=MIC endpoint_result=25
molecule="CCOC(=O)C(C)SC1=C(Cl)C(=O)c2ccccc2C1=O (stereo not drawn)" measure_name=MIC endpoint_result=50
molecule=CCOC(=O)CSC1=C(NC(C)C)C(=O)c2ccccc2C1=O measure_name=MIC endpoint_result=50

Summary for this molecule, `Cc1sc2c(=O)c3ccccc3c(=O)c=2n(C)c1O` : MIC is 50

// MIC value for CCOC(=O)C(C)SC1=C(NN)C(=O)c2ccccc2C1=O (stereo not drawn) : 6.25
